Target: L1196M mutant ALK kinase (Homo sapiens, UniProt Q9UM73, L1196M)
Sequence (Q9UM73 19-1620 L1196M): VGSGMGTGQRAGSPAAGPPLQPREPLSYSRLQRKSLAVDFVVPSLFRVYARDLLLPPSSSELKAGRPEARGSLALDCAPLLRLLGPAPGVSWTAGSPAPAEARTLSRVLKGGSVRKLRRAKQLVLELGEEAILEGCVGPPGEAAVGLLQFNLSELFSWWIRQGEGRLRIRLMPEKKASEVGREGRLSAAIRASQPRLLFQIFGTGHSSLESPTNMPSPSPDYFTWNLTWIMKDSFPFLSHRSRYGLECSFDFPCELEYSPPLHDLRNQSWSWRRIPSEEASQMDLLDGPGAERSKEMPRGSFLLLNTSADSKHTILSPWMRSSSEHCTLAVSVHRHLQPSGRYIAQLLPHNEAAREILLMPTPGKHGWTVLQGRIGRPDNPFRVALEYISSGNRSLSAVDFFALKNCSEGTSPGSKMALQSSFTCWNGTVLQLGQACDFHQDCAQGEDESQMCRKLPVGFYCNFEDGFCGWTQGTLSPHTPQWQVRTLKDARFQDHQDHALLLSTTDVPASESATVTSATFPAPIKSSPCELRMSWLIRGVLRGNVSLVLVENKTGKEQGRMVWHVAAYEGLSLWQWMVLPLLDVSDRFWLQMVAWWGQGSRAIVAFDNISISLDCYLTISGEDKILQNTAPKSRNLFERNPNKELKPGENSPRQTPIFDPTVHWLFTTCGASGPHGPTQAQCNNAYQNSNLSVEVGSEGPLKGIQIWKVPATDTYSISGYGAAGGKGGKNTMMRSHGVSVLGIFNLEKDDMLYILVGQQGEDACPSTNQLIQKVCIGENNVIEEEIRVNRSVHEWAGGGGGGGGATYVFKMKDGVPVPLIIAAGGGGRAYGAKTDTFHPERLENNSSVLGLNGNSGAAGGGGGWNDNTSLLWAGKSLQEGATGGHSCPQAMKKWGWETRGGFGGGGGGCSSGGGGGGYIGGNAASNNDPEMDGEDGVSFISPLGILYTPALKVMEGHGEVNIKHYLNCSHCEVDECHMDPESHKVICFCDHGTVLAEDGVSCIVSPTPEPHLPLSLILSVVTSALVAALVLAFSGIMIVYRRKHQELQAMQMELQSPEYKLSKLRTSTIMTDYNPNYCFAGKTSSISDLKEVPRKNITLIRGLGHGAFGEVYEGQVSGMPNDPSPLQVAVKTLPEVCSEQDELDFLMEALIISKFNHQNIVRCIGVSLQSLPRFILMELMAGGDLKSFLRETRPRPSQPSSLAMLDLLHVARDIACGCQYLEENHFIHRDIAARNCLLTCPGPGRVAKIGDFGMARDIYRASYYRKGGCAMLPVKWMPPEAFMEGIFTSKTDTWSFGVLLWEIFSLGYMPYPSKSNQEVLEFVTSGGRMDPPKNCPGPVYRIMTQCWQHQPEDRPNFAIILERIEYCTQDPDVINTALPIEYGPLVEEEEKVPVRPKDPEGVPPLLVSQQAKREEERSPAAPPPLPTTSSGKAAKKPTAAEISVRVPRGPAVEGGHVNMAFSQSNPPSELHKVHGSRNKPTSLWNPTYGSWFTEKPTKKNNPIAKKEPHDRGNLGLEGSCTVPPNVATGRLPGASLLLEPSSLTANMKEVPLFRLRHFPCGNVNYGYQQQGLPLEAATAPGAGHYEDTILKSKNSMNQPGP
Test: HTRF KinEASE-TK assay, inhibitory activity on L1196M mutant ALK kinase
Details: L1196M mutant ALK 1 ng/μl, substrate 1 μM, ATP 5 μM, 30° C. 35 minutes, read-out: Inhibition on ALK kinases (L1196M mutant), IC50
Parameter: IC50 (nM)

Recorded IC50, per entry:
>  <Molecule>
Cc1cc(Nc2ncc(Cl)c(Nc3cn(C)nc3C#N)n2)c(OC2CC2)cc1C1CCN(C)CC1

>  <Parameter>
IC50

>  <Endpoint value>
11

$$$$
>  <Molecule>
Cc1cc(Nc2ncc(Cl)c(Nc3cn(C)nc3S(=O)(=O)CC(C)C)n2)c(OC2CC2)cc1C1CN(C)C1

>  <Parameter>
IC50

>  <Endpoint value>
8

$$$$
>  <Molecule>
Cc1cc(Nc2ncc(Cl)c(Nc3cn(C)nc3S(=O)(=O)C(C)C)n2)c(OC2CC2)cc1C1CCN(C2COC2)CC1

>  <Parameter>
IC50

>  <Endpoint value>
10

$$$$

[1] Cc1cc(Nc2ncc(C(F)(F)F)c(Nc3cn(C)nc3S(=O)(=O)C(C)C)n2)c(OC2CC2)cc1C1CCN(C)CC1
[2] Cc1cc(Nc2ncc(Cl)c(Nc3cn(C)nc3S(=O)(=O)C(C)C)n2)c(OC2CC2)cc1C1CCN(C(=O)C(C)C)CC1
[3] Cc1cc(Nc2ncc(F)c(Nc3cn(C)nc3S(=O)(=O)C(C)C)n2)c(OC2CC2)cc1C1CCN(C)CC1
Given 3 molecules, produce a descending ranking by IC50. Provide your answer as the labels ordered per the instruction.
2, 3, 1
